Overview of recorded MIC for various compounds
Tested on: clinical P. aeruginosa isolates
Procedure details: microbe, parasite or virus in culture
Experimental context: Pseudomonas aeruginosa, 18 h, read-out: Antibiotic sensibility (MIC) of clinical P. aeruginosa isolate AUMC-Pa-1, strain AUMC-Pa-1; antibiotic alone
Quantity name: MIC (µM)

- C[C@H]1[C@H](NC(=O)/C(=N\OC(C)(C)C(=O)O)c2csc(N)n2)C(=O)N1S(=O)(=O)O [Aztreonam]: 32
- CC[C@H]1OC(=O)[C@H](C)[C@@H](O[C@H]2C[C@@](C)(OC)[C@@H](O)[C@H](C)O2)[C@H](C)[C@@H](O[C@@H]2O[C@H](C)C[C@H](N(C)C)[C@H]2O)[C@](C)(OC)C[C@@H](C)C(=O)[C@H](C)[C@@H](O)[C@]1(C)O [Clarithromycin]: 128
- CN(C)[C@@H]1C(O)=C(C(N)=O)C(=O)[C@@]2(O)C(O)=C3C(=O)c4c(O)c(NC(=O)CN5CCCC5)cc(F)c4C[C@H]3C[C@@H]12 [Eravacycline]: 16
- CN(C)c1cc(NC(=O)CNC(C)(C)C)c(O)c2c1C[C@H]1C[C@H]3[C@H](N(C)C)C(O)=C(C(N)=O)C(=O)[C@@]3(O)C(O)=C1C2=O [Tigecycline]: 8
- CC[C@H]1OC(=O)[C@H](C)C(=O)[C@H](C)[C@@H](O[C@@H]2O[C@H](C)C[C@H](N(C)C)[C@H]2O)[C@](C)(OC)C[C@@H](C)C(=O)[C@H](C)[C@H]2N(CCCCn3cnc(-c4cccnc4)c3)C(=O)O[C@]12C [Telithromycin]: 128
- C[C@H]1c2cccc(O)c2C(=O)C2=C(O)[C@]3(O)C(=O)C(C(N)=O)=C(O)[C@@H](N(C)C)[C@@H]3[C@@H](O)[C@@H]21 [Doxycycline]: 32
- C[C@H]1COc2c(N3CCN(C)CC3)c(F)cc3c(=O)c(C(=O)O)cn1c23 [Levofloxacin]: 8
- CO[C@H]1/C=C/O[C@@]2(C)Oc3c(C)c(O)c4c(c3C2=O)C2=NC3(CCN(CC(C)C)CC3)NC2=C(NC(=O)/C(C)=C\C=C\[C@H](C)[C@H](O)[C@@H](C)[C@@H](O)[C@@H](C)[C@H](OC(C)=O)[C@@H]1C)C4=O [Rifabutin]: 32

====

System: clinical P. aeruginosa isolates
Procedure details: microbe, parasite or virus in culture
Experimental context: Pseudomonas aeruginosa, 18 h, read-out: Antibiotic sensibility (MIC) of clinical P. aeruginosa isolate AUMC-Pa-6, strain AUMC-Pa-6; antibiotic alone
Overview of recorded MIC for various compounds
Quantity name: MIC

• CNC(C)C1CCC(N)C(OC2C(N)CC(N)C(OC3OCC(C)(O)C(NC)C3O)C2O)O1 (stereo not shown) [Gentamicin] = 2 µM
• C[C@H]1COc2c(N3CCN(C)CC3)c(F)cc3c(=O)c(C(=O)O)cn1c23 [Levofloxacin] = 0.25 µM
• CC1(C)S[C@@H]2[C@H](NC(=O)[C@H](N)c3ccccc3)C(=O)N2[C@H]1C(=O)O [Ampicillin] = > 128 µM
• CC(=O)NC[C@H]1CN(c2ccc(N3CCOCC3)c(F)c2)C(=O)O1 [Linezolid] = > 128 µM

====

Overview of recorded MIC for various molecules
Test system: clinical P. aeruginosa isolates
Procedure details: microbe, parasite or virus in culture
Experimental context: Pseudomonas aeruginosa, 18 h, read-out: Antibiotic sensibility (MIC) of clinical P. aeruginosa isolate AUMC-Pa-3, strain AUMC-Pa-3; antibiotic alone
Protocol: The bacterial strains, primers and plasmids used in this study are listed in S5 Table. […] Bacteria were cultured in LB medium or cation-adjusted Muller-Hinton broth (CA-MHB) at 37 °C with agitation at 220 rpm. All the antibiotics and chemical compounds used in this study were purchased from Sigma-Aldrich. […]
Quantity name: MIC (µM)

* CNC(C)C1CCC(N)C(OC2C(N)CC(N)C(OC3OCC(C)(O)C(NC)C3O)C2O)O1 (stereo not shown) [Gentamicin] | 0.0625
* CO/N=C(\C(=O)N[C@@H]1C(=O)N2C(C(=O)[O-])=C(C[N+]3(C)CCCC3)CS[C@H]12)c1csc(N)n1 [Cefepime] | 2
* [H]/N=C(/N)N[C@H]1[C@H](O)[C@@H](O)[C@H](O[C@@H]2O[C@@H](C)[C@](O)(C=O)[C@H]2O[C@@H]2O[C@@H](CO)[C@H](O)[C@@H](O)[C@@H]2NC)[C@@H](N/C(N)=N\[H])[C@@H]1O [Streptomycin] | 128
* NCC[C@H](O)C(=O)N[C@@H]1C[C@H](N)[C@@H](O[C@H]2O[C@H](CN)[C@@H](O)[C@H](O)[C@H]2O)[C@H](O)[C@H]1O[C@H]1O[C@H](CO)[C@@H](O)[C@H](N)[C@H]1O [Amikacin] | 0.0625

====

Overview of recorded FICI for various molecules
Test system: P. aeruginosa PAO1
Procedure details: microbe, parasite or virus in culture
Experimental context: S3 Table; PAO1; antibiotic + 4 μM D-11
Positions of bridges follow the written chain, without caps; N, C: chain ends. Non-standard residues stand in square brackets, D forms with d. Residues, ends and D or L forms follow the SMILES beside them. *: point of attachment. Ileψ(thiazoline)Cys = CC[C@H](C)[C@H](N)C1=N[C@H](C(=O)*)CS1; dOrn = NCCC[C@@H](N)C(=O)O
Quantity name: FICI

• C[C@H]1c2cccc(O)c2C(=O)C2=C(O)[C@]3(O)C(=O)C(C(N)=O)=C(O)[C@@H](N(C)C)[C@@H]3[C@@H](O)[C@@H]21 [Doxycycline] = 0.141
• CN(C)c1cc(NC(=O)CNC(C)(C)C)c(O)c2c1C[C@H]1C[C@H]3[C@H](N(C)C)C(O)=C(C(N)=O)C(=O)[C@@]3(O)C(O)=C1C2=O [Tigecycline] = 0.375
• [H]/N=C(/N)N[C@H]1[C@H](O)[C@@H](O)[C@H](O[C@@H]2O[C@@H](C)[C@](O)(C=O)[C@H]2O[C@@H]2O[C@@H](CO)[C@H](O)[C@@H](O)[C@@H]2NC)[C@@H](N/C(N)=N\[H])[C@@H]1O [Streptomycin] = 1.125
• C[C@H]1COc2c(N3CCN(C)CC3)c(F)cc3c(=O)c(C(=O)O)cn1c23 [Levofloxacin] = 0.156
• NC[C@H]1O[C@H](O[C@H]2[C@H](O)[C@@H](O[C@H]3O[C@H](CO)[C@@H](O)[C@H](N)[C@H]3O)[C@H](N)C[C@@H]2N)[C@H](O)[C@@H](O)[C@@H]1O [Kanamycin] = 2.125
• COc1cc(Cc2cnc(N)nc2N)cc(OC)c1OC [Trimethoprim] = 0.188
• CC[C@H](C)[C@H](N)C1=N[C@H](C(=O)N[C@@H](CC(C)C)C(=O)N[C@H](CCC(=O)O)C(=O)N[C@H](C(=O)N[C@H]2CCCCNC(=O)[C@H](CC(N)=O)NC(=O)[C@@H](CC(=O)O)NC(=O)[C@H](Cc3cnc[nH]3)NC(=O)[C@@H](Cc3ccccc3)NC(=O)[C@H]([C@@H](C)CC)NC(=O)[C@@H](CCCN)NC2=O)[C@@H](C)CC)CS1 [Bacitracin] ({Ileψ(thiazoline)Cys}-L[dE]IK[dOrn]I[dF]H[dD]N; lactam 4-C (inferred); N-terminus assumed) = 1.125
• O=C(N[C@H](CO)[C@H](O)c1ccc([N+](=O)[O-])cc1)C(Cl)Cl [Chloramphenicol] = 0.156
• CN(C)c1ccc(O)c2c1C[C@H]1C[C@H]3[C@H](N(C)C)C(O)=C(C(N)=O)C(=O)[C@@]3(O)C(O)=C1C2=O [Minocycline] = 0.141
• CCCCc1ccc(C(=O)O)nc1 [Fusaric Acid] = 1.125
• Cc1ncc([N+](=O)[O-])n1CCO [Metronidazole] = 1.125
• CO[C@@H]1[C@@H](OC(=O)c2ccc(C)[nH]2)[C@@H](O)[C@H](Oc2ccc3c(O)c(NC(=O)c4ccc(O)c(CC=C(C)C)c4)c(=O)oc3c2Cl)OC1(C)C [Chlorobiocin] = 0.375
• CC1(C)S[C@@H]2[C@H](NC(=O)[C@H](N)c3ccccc3)C(=O)N2[C@H]1C(=O)O [Ampicillin] = 1.125
• CO[C@H]1/C=C/O[C@@]2(C)Oc3c(C)c(O)c4c(O)c(c(/C=N/N5CCN(C6CCCC6)CC5)c(O)c4c3C2=O)NC(=O)/C(C)=C\C=C\[C@H](C)[C@H](O)[C@@H](C)[C@@H](O)[C@@H](C)[C@H](OC(C)=O)[C@@H]1C [Rifapentine] = 0.126
• CC1(C)S[C@@H]2[C@H](NC(=O)C(C(=O)O)c3ccccc3)C(=O)N2[C@H]1C(=O)O (some centres unmarked) [Carbenicillin] = 0.188
• CC1(C)S[C@@H]2[C@H](NC(=O)[C@H](N)c3ccc(O)cc3)C(=O)N2[C@H]1C(=O)O [Amoxicin, Amoxicillin] = 1.125
• CO[C@H]1/C=C/O[C@@]2(C)Oc3c(C)c(O)c4c(c3C2=O)C2=NC3(CCN(CC(C)C)CC3)NC2=C(NC(=O)/C(C)=C\C=C\[C@H](C)[C@H](O)[C@@H](C)[C@@H](O)[C@@H](C)[C@H](OC(C)=O)[C@@H]1C)C4=O [Rifabutin] = 0.126
